Field: Post-emergence action against AMARE in %. Provide a value for each of the molecules that follow.
system: Amaranthus retroflexus (AMARE); test: Post-emergence herbicidal action against AMARE; assay type: in vivo; settings: 320 g/ha, visual rating about 3 weeks after treatment

QUERY: Request: Post-emergence action against AMARE in %, test system Amaranthus retroflexus (AMARE), entry CCOC(=O)COc1nn(-c2ccccn2)c(-c2ccc(F)nc2)c1Cl
RESULT: 90%

QUERY: Also check C[C@@H](Oc1nn(-c2ncccc2F)c(-c2ccc(F)nc2)c1F)C(=O)O
RESULT: 80%

QUERY: Also check O=C(COc1nn(-c2ncccc2F)c(-c2ccc(F)nc2)c1C1CC1)OCC(F)(F)F
RESULT: 90%

QUERY: Also check O=C(COc1nn(-c2ncccc2F)c(-c2ccc(F)nc2)c1C1CC1)OCc1ccccc1
RESULT: 80%

Origin of values: patent US20240041042A1
